# System: LG0567-F671-PDC KRAS tumor spheroid viability;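 further: drug exposure lasted seven days after spheroids formed for three days; 100% = DMSO vehicle control viability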
# protocol-notes: Anticancer human tumor LG0567-F671-PDC patient-derived lung adenocarcinoma cell line growth inhibition [KRAS2]
# particulars: second compound 0.316 µM; first compound 0.01 µM; stronger effect = lower value; spheroids with HUVEC and MSC

{"compound": "Cn1ncnc1[C@H]1c2n[nH]c(=O)c3cc(F)cc(c23)N[C@@H]1c1ccc(F)cc1 + CNCc1ccccc1-c1csc(C(C)Nc2nc(C)nc3cc(OC)c(OC)cc23)c1", "target-under-test": "LG0567-F671-PDC KRAS tumor spheroid viability", "viability, T/C, %": 57.6}
{"compound": "CC(C)n1nc(-c2ccc3oc(N)nc3c2)c2c(N)ncnc21 + C=CC(=O)N1CCN(c2nc(OCC3CCCN3C)nc3c2CCN(c2cccc4cccc(C)c24)C3)CC1CC#N", "target-under-test": "LG0567-F671-PDC KRAS tumor spheroid viability", "viability, T/C, %": 17.7}
{"compound": "CCN1CCN(Cc2ccc(Nc3ncc(F)c(-c4cc(F)c5nc(C)n(C(C)C)c5c4)n3)nc2)CC1 + C=CC(=O)N1CCN(c2nc(=O)n(-c3c(C)ccnc3C(C)C)c3nc(-c4c(O)cccc4F)c(F)cc23)C(C)C1", "target-under-test": "LG0567-F671-PDC KRAS tumor spheroid viability", "viability, T/C, %": 19.6}
